- TEST_NAME: Intrinsic clearance in rat hepatocytes assessed per 10^6 cells
- Type: ADME, cell-based, Hepatocyte
- APPLIED_CONDITIONS: read-out: CLH
MEASURED_PARAMETER: hepatocyte CLint (µL/min/1e6 cells)

>  <GIVEN_SMILES>
O=S(=O)(c1ccc(Nc2ncc(N3CCOCC3)c(Nc3ccccc3)n2)cc1)N1CCCCC1

>  <hepatocyte CLint [µL/min/1e6 cells]>
88

$$$$
>  <GIVEN_SMILES>
Cc1cc(N(C)C)ccc1-c1nnc(N(C)Cc2ccc3nccn3c2)o1

>  <hepatocyte CLint [µL/min/1e6 cells]>
44

$$$$

[P] CS(=O)(=O)c1cnc(Nc2ccc(O)cc2)nc1NCc1ccccc1
[Q] O=C(Nc1ccc(Oc2cc(NC(=O)C3CC3)ncn2)cc1)Nc1ccc(CN2CCn3ccnc3C2)c(C(F)(F)F)c1
[R] CNC(=O)c1sc(N2CC3CC2(CNC(=O)c2c[nH]c4ncc(C(F)(F)F)cc24)C3)nc1C(F)(F)F
[S] CCn1c(-c2nnc(N(C)Cc3ccc4nccn4c3)o2)nc2ccccc21
Order each entry by recorded hepatocyte CLint, climbing from the minimum. Form entry: ranked labels (order as requested).
Q, S, P, R

* * *

- TEST_NAME: Intrinsic clearance in human liver microsomes
- Assay type: ADME, Microsome
- APPLIED_CONDITIONS: read-out: CLH
MEASURED_PARAMETER: microsomal CLint (µL/min/mg)

[A] CS(=O)(=O)c1cnc(Nc2ccc(O)cc2)nc1NCc1ccccc1
[B] CNc1nc(OC2CCCC2)nc2c1ncn2Cc1c(F)cccc1F
Please choose the item with the lower microsomal CLint value from this pair: A and B Answer by quoting the chosen item's label.
A
(A: 5 µL/min/mg, B: 240 µL/min/mg)

* * *

- TEST_NAME: Distribution coefficient, logD of compound at pH 7.4
- Format: physicochemical
- APPLIED_CONDITIONS: octanol/water
MEASURED_PARAMETER: logD

>  <GIVEN_SMILES>
Cc1cc(N(C)C)ccc1-c1nnc(N(C)Cc2ccc3nccn3c2)o1

>  <logD>
3.2

$$$$

[1] CNC(=O)c1sc(N2CC3CC2(CNC(=O)c2c[nH]c4ncc(C)cc24)C3)nc1C(F)(F)F
[2] COc1cc2c(Nc3cnc(NC(=O)c4cccn4C)nc3)ncnc2cc1OCCCNC1CCCC1
Which numeric logD is bigger, that of 1 or that of 2 ? Answer by quoting the chosen item's label.
1

[P] CNC(=O)C[C@@H](NC(=O)[C@@H](CCc1ccccc1)NC(=O)c1c(C)noc1-c1snnc1C)c1ccc(C(F)(F)F)cc1
[Q] CN(Cc1ccc2nccn2c1)c1nnc(-c2ncc(C(F)(F)F)cc2Cl)o1
Which numeric logD is bigger, that of P or that of Q ? Answer by quoting the chosen item's label.
P
(P: 4.2, Q: 2.6)

[1] CN(Cc1ccc2nccn2c1)c1nnc(-c2ccc(-c3ccccc3Cl)cc2)o1
[2] CCn1c(-c2nnc(N(C)Cc3ccc4nccn4c3)o2)nc2ccccc21
Which numeric logD is bigger, that of 1 or that of 2 ? Answer by quoting the chosen item's label.
1
(1: 4.8, 2: 3)

[1] CN(Cc1ccc2nccn2c1)c1nnc(-c2ccc(OC3CCCC3)cc2)o1
[2] CS(=O)(=O)c1cnc(Nc2ccc(O)cc2)nc1NCc1ccccc1
Which numeric logD is bigger, that of 1 or that of 2 ? Answer by quoting the chosen item's label.
1
(1: 4.1, 2: 2.8)

* * *

- TARGET: Receptor-type tyrosine-protein kinase FLT3 (Homo sapiens, UniProt P36888)
- Sequence (P36888 whole entry, the tested form may be a part): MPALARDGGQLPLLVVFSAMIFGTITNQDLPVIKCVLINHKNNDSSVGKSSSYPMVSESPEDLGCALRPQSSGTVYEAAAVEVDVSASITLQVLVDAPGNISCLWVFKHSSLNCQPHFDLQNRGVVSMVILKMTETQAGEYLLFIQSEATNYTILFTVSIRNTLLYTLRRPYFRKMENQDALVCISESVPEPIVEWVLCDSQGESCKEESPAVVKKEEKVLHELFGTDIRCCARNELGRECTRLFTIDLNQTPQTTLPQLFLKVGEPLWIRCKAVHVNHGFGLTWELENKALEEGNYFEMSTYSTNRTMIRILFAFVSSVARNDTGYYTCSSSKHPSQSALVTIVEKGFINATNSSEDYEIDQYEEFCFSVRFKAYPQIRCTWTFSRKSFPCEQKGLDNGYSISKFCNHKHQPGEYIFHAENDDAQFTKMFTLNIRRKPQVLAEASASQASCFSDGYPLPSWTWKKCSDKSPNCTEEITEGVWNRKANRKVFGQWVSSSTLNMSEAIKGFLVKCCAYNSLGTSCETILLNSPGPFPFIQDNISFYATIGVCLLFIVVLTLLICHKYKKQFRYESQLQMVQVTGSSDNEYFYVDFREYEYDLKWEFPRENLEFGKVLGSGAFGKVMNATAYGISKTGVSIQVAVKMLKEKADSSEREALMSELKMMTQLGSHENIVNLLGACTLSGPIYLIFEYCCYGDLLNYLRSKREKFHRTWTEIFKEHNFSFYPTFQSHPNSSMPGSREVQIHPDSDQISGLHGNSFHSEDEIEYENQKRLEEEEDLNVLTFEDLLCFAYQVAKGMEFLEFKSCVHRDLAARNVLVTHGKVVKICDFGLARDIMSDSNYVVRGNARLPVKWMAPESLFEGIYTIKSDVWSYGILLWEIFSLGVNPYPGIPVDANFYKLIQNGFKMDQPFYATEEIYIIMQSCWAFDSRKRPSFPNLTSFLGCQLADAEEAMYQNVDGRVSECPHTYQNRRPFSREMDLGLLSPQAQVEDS
- TEST_NAME: Inhibition of His6/TEV fused-GST-tagged Flt3 (unknown origin) (H564 to S993 residues) using Axltide (CKKSRGDYMTMQJ-acid) peptide as substrate preincubated for 30 mins followed by substrate and ATP addition at Km concentration measured after 75 mins by RapidFire LC-MS analysis
MEASURED_PARAMETER: IC50

>  <GIVEN_SMILES>
CN(Cc1ccc2nccn2c1)c1nnc(-c2ncc(C(F)(F)F)cc2Cl)o1

>  <MEAS_VALUE>
> 100 µM

$$$$
>  <GIVEN_SMILES>
CNC(=O)C[C@@H](NC(=O)[C@@H](CCc1ccccc1)NC(=O)c1c(C)noc1-c1snnc1C)c1ccc(C(F)(F)F)cc1

>  <MEAS_VALUE>
> 100 µM

$$$$
>  <GIVEN_SMILES>
CNc1nc(OCC2CCC2)nc2c1ncn2Cc1c(F)cccc1F

>  <MEAS_VALUE>
> 50.1 µM

$$$$
>  <GIVEN_SMILES>
O=S(=O)(c1ccc(Nc2ncc(N3CCOCC3)c(Nc3ccccc3)n2)cc1)N1CCCCC1

>  <MEAS_VALUE>
> 39.8 µM

$$$$

# value lookup — system Receptor-type tyrosine-protein kinase FLT3 (Homo sapiens, UniProt P36888), readout IC50, item CNC(=O)c1sc(N2CC3CC2(CNC(=O)c2c[nH]c4ncc(C(F)(F)F)cc24)C3)nc1C(F)(F)F
> 100 µM

* * *

- TEST_NAME: Distribution coefficient, logD of compound at pH 7.4
- Assay type: physicochemical
- APPLIED_CONDITIONS: octanol/water
MEASURED_PARAMETER: logD

>  <GIVEN_SMILES>
CNc1nc(OC2CCCC2)nc2c1ncn2Cc1c(F)cccc1F

>  <MEASURED_PARAMETER>
logD

>  <MEAS_VALUE>
4.3

$$$$
>  <GIVEN_SMILES>
C[C@@H]1CN(c2cnc(Nc3cc(F)c(OCC4CC4)c(F)c3)nc2NC2CCOCC2)CCN1

>  <MEASURED_PARAMETER>
logD

>  <MEAS_VALUE>
3.2

$$$$
>  <GIVEN_SMILES>
CNC(=O)c1sc(N2CC3CC2(CNC(=O)c2c[nH]c4ncccc24)C3)nc1C(F)(F)F

>  <MEASURED_PARAMETER>
logD

>  <MEAS_VALUE>
3.1

$$$$
>  <GIVEN_SMILES>
COc1cc2c(Nc3cnc(OCCCC4CCCC4)nc3)ncnc2cc1OCCCN1CCCCC1

>  <MEASURED_PARAMETER>
logD

>  <MEAS_VALUE>
4.5

$$$$
>  <GIVEN_SMILES>
CNC(=O)c1sc(N2CC3CC2(CNC(=O)c2c[nH]c4ncc(C(F)(F)F)cc24)C3)nc1C(F)(F)F

>  <MEASURED_PARAMETER>
logD

>  <MEAS_VALUE>
4.2

$$$$
>  <GIVEN_SMILES>
CN(Cc1ccc2nccn2c1)c1nnc(-c2ccc(-c3ccccc3Cl)nc2)o1

>  <MEASURED_PARAMETER>
logD

>  <MEAS_VALUE>
3.3

$$$$
>  <GIVEN_SMILES>
CNC(=O)c1sc(N2CC3CC2(CNC(=O)c2c[nH]c4ncc(Cl)cc24)C3)nc1C(F)(F)F

>  <MEASURED_PARAMETER>
logD

>  <MEAS_VALUE>
4

$$$$
